- target-of-assay: UniProtKB P0A725
- Sequence (P0A725 1-305): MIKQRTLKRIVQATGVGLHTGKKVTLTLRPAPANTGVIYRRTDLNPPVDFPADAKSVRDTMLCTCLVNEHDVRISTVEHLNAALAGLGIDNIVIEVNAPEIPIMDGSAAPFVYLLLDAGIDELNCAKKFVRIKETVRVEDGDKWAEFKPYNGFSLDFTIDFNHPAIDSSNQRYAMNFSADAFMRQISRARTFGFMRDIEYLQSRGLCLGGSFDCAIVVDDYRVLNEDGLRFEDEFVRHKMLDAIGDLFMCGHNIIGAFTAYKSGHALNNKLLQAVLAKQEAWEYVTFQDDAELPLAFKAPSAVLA
- measurement-description: standard LpxC enzyme assay (RapidFire high-throughput mass spectrometry)
- Type: biochemical
- conditions: LpxC inhibitory activity; read-out: IC50 values
- Description: The standard LpxC assay consists of 0.2 nM LpxC enzyme, 1.0 μM UDP-3-O—(R-3-hydroxymyristoyl)-N-acetylglucosamine, and test compound, in assay buffer and 2% DMSO. […] The concentrations of substrate and product in the reaction mixtures are determined with BioTrove's proprietary RapidFire™ high-throughput mass spectrometry (HTMS). […] The mass spectrometry peak areas of the substrate and product are measured to determine the concentration of these analytes. […]
measurement-label: pIC50
Answers are plain numbers, as −log10 of the molar value.

1. CCC1(CC(=O)N2CCC(c3ccc(C#Cc4ccccc4)cc3)CC2)NC(=O)NC1=O (stereo not drawn) [Compound 43]
6.15
2. CC1(CC(=O)N2CCC(c3ccc(C#Cc4ccccc4)cc3)CC2)NC(=O)NC1=O (stereo not drawn) [Compound 36]
6.22

Consider the record given below.
Q. If you can, please state the reported pIC50 value of CC1(CC(=O)N2CCN(c3ccc(C#Cc4ccccc4)cc3)CC2)NC(=O)NC1=O (stereo not drawn) [Compound 39] .
A. 6.30
